Can you tell me log10(Ki) for the items I'm about to list?
- assay target: human dopamine receptor subtype D2S (Homo sapiens, UniProt P14416)
- Sequence (P14416 1-414 isoform P14416-2): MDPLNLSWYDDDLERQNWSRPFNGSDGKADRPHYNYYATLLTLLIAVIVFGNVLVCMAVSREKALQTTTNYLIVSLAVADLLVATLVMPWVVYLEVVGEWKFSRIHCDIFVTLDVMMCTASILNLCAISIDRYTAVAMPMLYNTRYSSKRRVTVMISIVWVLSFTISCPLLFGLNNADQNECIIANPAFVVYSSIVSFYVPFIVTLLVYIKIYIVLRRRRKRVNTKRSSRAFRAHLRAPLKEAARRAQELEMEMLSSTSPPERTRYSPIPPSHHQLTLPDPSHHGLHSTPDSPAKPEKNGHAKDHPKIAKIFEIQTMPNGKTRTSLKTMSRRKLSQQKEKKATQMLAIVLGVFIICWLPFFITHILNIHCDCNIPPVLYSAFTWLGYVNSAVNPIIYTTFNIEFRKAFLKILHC
- assay text: Radioligand displacement, [3H]spiperone, CHO cell membranes
- Type: binding
- measurement conditions: [3H]spiperone; mean ± SEM of 4-9 experiments; compounds 1, 2, 3: ± SD of two experiments; read-out: Ki value D2S
Answers are given as log10 of Ki in nM.

// field: log10(Ki); key: CCc1cc(Cl)c(OC)c(C(=O)NC[C@@H]2CCCN2CC)c1OCc1ccccc1 [compound 3] ; value = 3.79

// field: log10(Ki); key: CCc1ccc(OC)c(C(=O)NC[C@@H]2CCCN2CC)c1OCc1cc(OC)c(OC)cc1[N+](=O)[O-] [compound 5] ; value = 2.20

// field: log10(Ki); key: CCc1ccc(OC)c(C(=O)NC[C@@H]2CCCN2CC)c1OCc1ccccc1 [compound 6] ; value = 2.71

// field: log10(Ki); key: CCc1ccc(OC)c(C(=O)NC[C@@H]2CCCN2CC)c1O [dechloroeticlopride, reference compound] ; value = 0.08

// field: log10(Ki); key: CCc1ccc(OC)c(C(=O)NC[C@@H]2CCCN2CC)c1OCc1ccccc1[N+](=O)[O-] [compound 4] ; value = 2.34

----------
- assay target: dopamine D2S receptor co-expressed with hybrid Gαqi in HEK293T cells (Homo sapiens, UniProt P14416)
- Construct: expressed in transfected cells; host or cells: HEK-293T cells, transient co-transfection
- Sequence (P14416 1-414 isoform P14416-2): as the sequence (P14416 1-414 isoform P14416-2) above
- assay text: IP accumulation assay (IP-One HTRF), agonist / inverse agonist effect
- Assay type: cell-based
- measurement conditions: IP accumulation, ± SEM, 3-8 experiments; negative Emax = inverse agonist effect
Can you tell me pEC50 for the items I'm about to list?
pEC50 is defined as minus the log10 of a concentration measured in mol/L.

// field: pEC50; key: CCc1ccc(OC)c(C(=O)NC[C@@H]2CCCN2CC)c1O [dechloroeticlopride, reference compound] ; value = 8.28

// field: pEC50; key: CCc1ccc(OC)c(C(=O)NC[C@@H]2CCCN2CC)c1OCc1ccccc1[N+](=O)[O-] ; value = 6.66

// field: pEC50; key: CCc1ccc(OC)c(C(=O)NC[C@@H]2CCCN2CC)c1OCc1cc(OC)c(OC)cc1[N+](=O)[O-] ; value = 6.55

// field: pEC50; key: CCc1ccc(OC)c(C(=O)NC[C@@H]2CCCN2CC)c1OCc1ccccc1 ; value = 6.32

----------
- assay target: all dopamine receptor subtypes
- assay text: Radioligand binding, text summary over all dopamine receptor subtypes tested
- measurement conditions: range over D2L, D2S, D3, D4.4, stated in text; read-out: Ki values towards all dopamine receptor subtypes (range)
pKi: −log10 of the molar value.
quantity: pKi

// field: pKi; key: CCc1cc(Cl)c(OC)c(C(=O)NC[C@@H]2CCCN2CC)c1OCc1ccccc1 ; value = 4.66 to 5.32

----------
Reported Ki for target or system human adrenergic β2 receptor (Homo sapiens), by entry.
Report as a plain number; the unit µM is understood.

I looked up CCc1cc(Cl)c(OC)c(C(=O)NC[C@@H]2CCCN2CC)c1O [eticlopride] and its Ki for human adrenergic β2 receptor (Homo sapiens) was 4.9

I looked up CCc1ccc(OC)c(C(=O)NC[C@@H]2CCCN2CC)c1O [dechloroeticlopride, reference compound] and its Ki for human adrenergic β2 receptor (Homo sapiens) was 8.9

----------
- assay target: UniProt P21917
- Sequence (P21917 whole entry): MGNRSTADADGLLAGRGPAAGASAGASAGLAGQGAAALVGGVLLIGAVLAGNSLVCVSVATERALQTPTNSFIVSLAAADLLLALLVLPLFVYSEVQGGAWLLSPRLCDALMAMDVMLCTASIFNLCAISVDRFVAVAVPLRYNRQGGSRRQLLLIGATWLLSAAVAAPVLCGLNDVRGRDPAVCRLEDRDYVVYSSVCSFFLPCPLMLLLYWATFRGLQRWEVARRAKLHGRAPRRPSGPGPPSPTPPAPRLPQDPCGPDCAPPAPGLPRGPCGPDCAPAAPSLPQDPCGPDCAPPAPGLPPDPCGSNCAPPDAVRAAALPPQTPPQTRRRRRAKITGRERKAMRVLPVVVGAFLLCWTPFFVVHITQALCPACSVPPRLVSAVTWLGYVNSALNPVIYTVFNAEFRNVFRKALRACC
- assay text: Radioligand displacement, [3H]spiperone, CHO cell membranes
- Format: binding
- measurement conditions: [3H]spiperone; mean ± SEM of 4-9 experiments; compounds 1, 2, 3: ± SD of two experiments; read-out: Ki value D4.4
Can you tell me Ki for the items I'm about to list?
Report as a plain number; the unit µM is understood.

I looked up CCc1cc(Cl)c(OC)c(C(=O)NC[C@@H]2CCCN2CC)c1OCc1ccccc1[N+](=O)[O-] [compound 1] and its Ki for UniProt P21917 was 2.8

I looked up CCc1ccc(OC)c(C(=O)NC[C@@H]2CCCN2CC)c1OCc1ccccc1[N+](=O)[O-] [compound 4] and its Ki for UniProt P21917 was 2.8

I looked up CCc1ccc(OC)c(C(=O)NC[C@@H]2CCCN2CC)c1OCc1ccccc1 [compound 6] and its Ki for UniProt P21917 was 7.7

I looked up CCc1ccc(OC)c(C(=O)NC[C@@H]2CCCN2CC)c1OCc1cc(OC)c(OC)cc1[N+](=O)[O-] [compound 5] and its Ki for UniProt P21917 was 25
